- assay_system: T1, Recombinant Human CDH6 Fc His chimera (R&D Systems, Inc.) (human, UniProt P55285 54-615)
- T1 construct: Bought reagent; also called the antigen; human CDH6 antigen; Fc part of the bought chimera not given; His tag of the bought chimera
- T1 sequence: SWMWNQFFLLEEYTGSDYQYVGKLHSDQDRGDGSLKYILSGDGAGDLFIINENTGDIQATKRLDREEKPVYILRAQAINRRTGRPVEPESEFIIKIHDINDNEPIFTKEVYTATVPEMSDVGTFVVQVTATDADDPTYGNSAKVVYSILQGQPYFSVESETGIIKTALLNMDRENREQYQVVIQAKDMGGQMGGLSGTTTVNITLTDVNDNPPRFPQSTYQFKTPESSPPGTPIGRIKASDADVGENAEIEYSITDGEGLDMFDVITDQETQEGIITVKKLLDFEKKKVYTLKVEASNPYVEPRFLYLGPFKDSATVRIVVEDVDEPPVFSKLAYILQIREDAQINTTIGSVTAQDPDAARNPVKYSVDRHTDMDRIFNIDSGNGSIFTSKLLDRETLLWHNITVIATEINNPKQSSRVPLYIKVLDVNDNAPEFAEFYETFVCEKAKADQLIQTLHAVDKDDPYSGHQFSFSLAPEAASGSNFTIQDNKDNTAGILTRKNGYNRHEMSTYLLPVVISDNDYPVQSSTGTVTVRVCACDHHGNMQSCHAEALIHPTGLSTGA
- experiment_notes: SPR (Biacore T200); antigen captured by immobilized anti-His antibody, antibody as analyte 0.391 to 100 nM; steady state affinity model
pKd: −log10 of the molar value.

- binder: "humanized anti-CDH6 antibody H02L03 (antibody, human IgG1, kappa, V domains shown, hH02 heavy chain and hL03 light chain, human IgG1 / kappa; also called H02L03 antibody) VH: EVQLVQSGAEVKKPGASVKVSCKASGYTFTRNFMHWVRQAPGQGLEWMGWIYPGDGETEYNQKFQGRVTITADRSTSTAYMELSSLRSEDTAVYFCARGVYGGFAGGYFDFWGQGTLVTVSS VL: DIQMTQSPSSLSASVGDRVTITCKASQNIYKNLAWYQQKLGEGPKLLIYDANTLQTGVPSRFSGSGSGTDFTLTISSLQPEDFATYYCQQYYSGWAFGQGTKVEIKR"
  pKd: 8.85
- binder: "humanized anti-CDH6 antibody H01L02 (antibody, human IgG1, kappa, V domains shown, hH01 heavy chain and hL02 light chain, human IgG1 / kappa; also called H01L02 antibody; humanized hG019 (H01L02)) VH: EVQLVQSGAEVKKPGASVKVSCKASGYTFTRNFMHWVRQAPGQGLEWMGWIYPGDGETEYAQKFQGRVTITADTSTSTAYMELSSLRSEDTAVYYCARGVYGGFAGGYFDFWGQGTLVTVSS VL: DIQMTQSPSSLSASVGDRVTITCKASQNIYKNLAWYQQKPGKAPKLLIYDANTLQTGVPSRFSGSGSGSDFTLTISSLQPEDFATYFCQQYYSGWAFGQGTKVEIKR"
  pKd: 8.82
- binder: "humanized anti-CDH6 antibody H02L02 (antibody, human IgG1, kappa, V domains shown, hH02 heavy chain and hL02 light chain, human IgG1 / kappa; also called H02L02 antibody) VH: EVQLVQSGAEVKKPGASVKVSCKASGYTFTRNFMHWVRQAPGQGLEWMGWIYPGDGETEYNQKFQGRVTITADRSTSTAYMELSSLRSEDTAVYFCARGVYGGFAGGYFDFWGQGTLVTVSS VL: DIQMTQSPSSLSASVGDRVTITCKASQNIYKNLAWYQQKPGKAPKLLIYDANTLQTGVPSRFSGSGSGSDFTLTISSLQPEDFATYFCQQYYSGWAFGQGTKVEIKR"
  pKd: 8.96
- binder: "humanized anti-CDH6 antibody H04L02 (antibody, human IgG1, kappa, V domains shown, hH04 heavy chain and hL02 light chain, human IgG1 / kappa; also called H04L02 antibody) VH: QVQLVQSGAEVKKPGASVKVSCKASGYTFTRNFMHWIRQAPGQGLEWMGWIYPGDGETEYAQKFQGRVTLTADRSTSTAYMELSSLRSEDTAVYYCARGVYGGFAGGYFDFWGQGTLVTVSS VL: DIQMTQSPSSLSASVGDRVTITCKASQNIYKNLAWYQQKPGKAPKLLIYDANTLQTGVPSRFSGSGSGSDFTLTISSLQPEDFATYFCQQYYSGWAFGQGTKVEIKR"
  pKd: 8.96
